target: SIK2 (Homo sapiens, UniProt Q9H0K1); construct: purchased ThermoFisher Scientific PV4792; experiment: biochemical; conditions: 33P radioactive SIK kinase assay, AMARA peptide, 10 μM ATP
Sequence (Q9H0K1 whole entry): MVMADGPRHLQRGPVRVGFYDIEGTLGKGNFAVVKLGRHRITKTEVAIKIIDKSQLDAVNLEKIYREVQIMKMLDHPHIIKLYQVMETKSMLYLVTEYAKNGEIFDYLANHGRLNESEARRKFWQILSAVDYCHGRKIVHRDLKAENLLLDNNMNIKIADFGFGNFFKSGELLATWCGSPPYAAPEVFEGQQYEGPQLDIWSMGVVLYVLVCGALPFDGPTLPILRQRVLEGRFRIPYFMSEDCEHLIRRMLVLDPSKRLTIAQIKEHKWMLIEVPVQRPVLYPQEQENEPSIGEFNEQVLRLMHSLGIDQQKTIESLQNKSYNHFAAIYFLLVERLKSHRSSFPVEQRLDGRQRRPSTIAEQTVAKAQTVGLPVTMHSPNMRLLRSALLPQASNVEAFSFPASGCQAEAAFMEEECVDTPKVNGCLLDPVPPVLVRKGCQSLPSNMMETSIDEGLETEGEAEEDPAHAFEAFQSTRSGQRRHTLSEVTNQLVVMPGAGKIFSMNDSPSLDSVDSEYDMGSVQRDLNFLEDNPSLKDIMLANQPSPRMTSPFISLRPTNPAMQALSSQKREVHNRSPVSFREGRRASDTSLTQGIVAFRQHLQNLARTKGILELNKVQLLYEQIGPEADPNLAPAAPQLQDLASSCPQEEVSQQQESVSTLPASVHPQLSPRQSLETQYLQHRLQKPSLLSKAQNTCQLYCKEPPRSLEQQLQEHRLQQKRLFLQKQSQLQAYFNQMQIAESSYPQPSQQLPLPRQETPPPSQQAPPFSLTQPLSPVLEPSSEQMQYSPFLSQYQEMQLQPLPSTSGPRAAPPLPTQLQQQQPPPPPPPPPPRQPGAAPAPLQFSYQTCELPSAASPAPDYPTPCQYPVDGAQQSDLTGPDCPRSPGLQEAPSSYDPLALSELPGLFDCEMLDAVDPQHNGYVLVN
pIC50: −log10 of the molar value.
MEASUREMENT_TYPE: pIC50

Below, 5 compounds whose answers are already recorded.
Looking up "COc1cc(-n2cnc3cc(-c4cnn(CCN5CCOCC5)c4)ccc32)cc(OC)c1C(=O)NCC(F)(F)F" , I see its pIC50 listed as 8.00 to 11.00

pIC50 for "COc1cc(-c2cnc3cc(-c4cnn(C)c4)ccn23)cc(OC)c1C(=O)N[C@@H](C)C(F)(F)F" is 7.00 to 8.00

The compound listed as "COc1cc(-c2ccc3c(c2)ncn3-c2cc(OC)c(C(=O)NCC(F)(F)F)c(OC)c2)ccn1" shows pIC50 equal to 7.00 to 8.00

Field pIC50 (entry "COc1cc(-c2cnc3cc(-c4cnn(CCCC(=O)O)c4)ccn23)cc(OC)c1C(=O)NCC(F)(F)F" ) reads 8.00 to 11.00

Query "COc1cc(-n2cnc3cc(-c4cnc(C)n4C)ccc32)cc(OC)c1C(=O)NCC(F)(F)F" yields pIC50 of 6.30 to 7.00

New cases:
Lab note: "COc1cc(-n2cnc3cc(-c4cnn(C)c4)ccc32)cc(OC)c1C(=O)N1CC(O)(C(F)(F)F)C1" gave pIC50 of 8.00 to 11.00

# compound "COc1cc(-c2cnc3cc(-c4cnn(CC(=O)OC(C)C)c4)ccn23)cc(OC)c1C(=O)NCC(F)(F)F" ; its pIC50 = 8.00 to 11.00

compound "COc1cc(-n2cnc3cc(-c4cnn(C)c4)ccc32)cc(OC(C)C)c1C(=O)NC1CC1" , pIC50 observed: 6.30 to 7.00
